# Test target: CDK2 (Homo sapiens)
# Construct: endogenous in cells; host or cells: MDA-MB-231
# Protocol details: CDK protein degradation activity (Western blotting), CDK2
# Assay type: cell-based
# Recorded conditions: MDA-MB-231 cells, 0.1 μM, 16 hours, Western blot
Note to self: use true only for Enzyme degradation CDK2 (% remaining) @ 0.1 μM readings below 40%; a reading exactly at 40% still gets false.

In plain terms, does O=C1CCC(N2C(=O)c3cccc(OCC(=O)N4CCC5(CC4)CC(N4CCN(c6ccc(Nc7ncnc8c7ncn8[C@H]7C[C@@H](NC(=O)Cc8ccccc8)C7)cc6)CC4)C5)c3C2=O)C(=O)N1 (stereo partly shown) come in under 40% for Enzyme degradation CDK2 (% remaining) @ 0.1 μM?
true

Then O=C1CCC(N2C(=O)c3cc(F)c(N4CCC(CN5CCC(CCNc6ncnc7c6ncn7[C@H]6C[C@@H](NC(=O)Cc7ccccc7)C6)CC5)CC4)cc3C2=O)C(=O)N1 (stereo partly shown) ?
false

Then O=C1CC[C@H](N2C(=O)c3ccc(N4CCC(C(=O)N5CCC(CCN6CCN(c7ccc(Nc8ncnc9c8ncn9C8CC(NC(=O)c9c(Cl)cccc9Cl)C8)cc7)CC6)CC5)CC4)cc3C2=O)C(=O)N1 (stereo partly shown) ?
true

Then O=C1CC[C@H](N2C(=O)c3cccc(N4CCC(CN5CCN(c6ccc(Nc7ncnc8c7ncn8C7CC(NC(=O)Cc8ccccc8)C7)cc6)CC5)CC4)c3C2=O)C(=O)N1 (stereo partly shown) ?
true

Then Cc1cccc(C(=O)NC2CC(n3cnc4c(NCCCN5CCN(CC6CCN(C(=O)COc7ccc8c(c7)C(=O)N([C@@H]7CCC(=O)NC7=O)C8=O)CC6)CC5)ncnc43)C2)n1 (stereo partly shown) ?
false

Then Cc1cccc(C(=O)N[C@H]2C[C@@H](n3cnc4c(NC5CCN(CCCCCCNc6ccc7c(c6)C(=O)N([C@H]6CCC(=O)NC6=O)C7=O)CC5)ncnc43)C2)n1 ?
false

Then O=C1CC[C@H](N2C(=O)c3cc(F)c(N4CCC(C(=O)N5CCC(CCCN6CCN(c7ccc(Nc8ncnc9c8ncn9[C@H]8C[C@@H](NC(=O)Cc9ccccc9)C8)cc7)CC6)CC5)CC4)cc3C2=O)C(=O)N1 ?
false

Then O=C1CC[C@H](N2C(=O)c3ccc(N4CCC(CN5CCC(CCNc6ncnc7c6ncn7C6CC(NC(=O)Cc7ccccc7)C6)CC5)CC4)cc3C2=O)C(=O)N1 (stereo partly shown) ?
true

Then O=C1CCC(N2C(=O)c3ccc(N4CC(C(=O)N5CCN(C6CN(c7ccc(Nc8ncnc9c8ncn9[C@H]8C[C@@H](NC(=O)Cc9ccccc9)C8)cc7)C6)CC5)C4)cc3C2=O)C(=O)N1 (stereo partly shown) ?
true
